Each item that follows carries a reported pKd.
target: CY5 fluorescently labeled CAS9 protein (S. pyogenes), Q99ZW2; assay: fluorescence titration of 5 nM CY5-CAS9 with increasing peptide, quadratic fit; conditions: remark: other sources report otherwise
Sequence (Q99ZW2 whole entry): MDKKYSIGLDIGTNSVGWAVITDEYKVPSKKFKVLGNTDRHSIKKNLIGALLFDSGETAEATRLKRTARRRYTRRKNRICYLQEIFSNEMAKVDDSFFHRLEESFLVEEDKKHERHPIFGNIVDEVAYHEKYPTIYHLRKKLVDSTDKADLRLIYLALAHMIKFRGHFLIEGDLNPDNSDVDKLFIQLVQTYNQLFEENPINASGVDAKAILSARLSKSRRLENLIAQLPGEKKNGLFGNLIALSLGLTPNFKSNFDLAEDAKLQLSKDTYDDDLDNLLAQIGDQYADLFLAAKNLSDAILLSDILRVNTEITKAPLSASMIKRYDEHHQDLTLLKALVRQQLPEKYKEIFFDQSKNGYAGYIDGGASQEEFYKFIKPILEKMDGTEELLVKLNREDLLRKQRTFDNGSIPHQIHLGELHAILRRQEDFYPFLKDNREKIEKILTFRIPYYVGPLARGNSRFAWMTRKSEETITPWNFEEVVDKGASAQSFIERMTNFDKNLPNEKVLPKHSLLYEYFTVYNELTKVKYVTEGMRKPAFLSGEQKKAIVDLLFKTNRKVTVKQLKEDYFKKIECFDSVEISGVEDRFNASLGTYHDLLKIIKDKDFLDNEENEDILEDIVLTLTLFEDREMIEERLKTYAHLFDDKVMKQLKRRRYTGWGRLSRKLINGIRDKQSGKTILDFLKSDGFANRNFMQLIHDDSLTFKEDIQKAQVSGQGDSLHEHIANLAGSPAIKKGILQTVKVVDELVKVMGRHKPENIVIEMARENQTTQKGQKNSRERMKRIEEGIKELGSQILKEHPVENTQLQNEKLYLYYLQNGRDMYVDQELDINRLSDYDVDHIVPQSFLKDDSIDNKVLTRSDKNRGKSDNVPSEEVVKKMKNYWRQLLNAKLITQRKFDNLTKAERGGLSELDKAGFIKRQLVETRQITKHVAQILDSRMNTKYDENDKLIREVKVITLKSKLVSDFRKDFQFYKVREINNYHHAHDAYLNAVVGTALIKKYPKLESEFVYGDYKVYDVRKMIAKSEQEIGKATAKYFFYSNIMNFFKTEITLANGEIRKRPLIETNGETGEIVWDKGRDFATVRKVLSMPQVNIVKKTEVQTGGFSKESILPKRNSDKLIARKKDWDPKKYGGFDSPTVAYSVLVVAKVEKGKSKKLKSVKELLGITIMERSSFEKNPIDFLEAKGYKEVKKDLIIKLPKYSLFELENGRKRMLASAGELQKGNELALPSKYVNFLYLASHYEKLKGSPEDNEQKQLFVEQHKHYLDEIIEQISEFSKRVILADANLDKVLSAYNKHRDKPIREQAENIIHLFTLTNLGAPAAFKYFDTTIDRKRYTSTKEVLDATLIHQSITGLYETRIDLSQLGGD
pKd: −log10 of the molar value. Non-standard residues stand in square brackets, D forms with d. No end group written: not given here. βAla = NCCC(=O)O

Binder	pKd
GLWRALWRLLRSLWRLLWKV (also: acetate salt) [CADY]	< 7.00
[βAla]LWRALWRLWRSLWRLLWKA (also: acetate salt) [VEPEP-6]	< 7.00
